Ref: ChEMBL document CHEMBL1137361

- targetOfAssay: Alpha-1B adrenergic receptor (Rattus norvegicus)
- Sequence (P15823 whole entry): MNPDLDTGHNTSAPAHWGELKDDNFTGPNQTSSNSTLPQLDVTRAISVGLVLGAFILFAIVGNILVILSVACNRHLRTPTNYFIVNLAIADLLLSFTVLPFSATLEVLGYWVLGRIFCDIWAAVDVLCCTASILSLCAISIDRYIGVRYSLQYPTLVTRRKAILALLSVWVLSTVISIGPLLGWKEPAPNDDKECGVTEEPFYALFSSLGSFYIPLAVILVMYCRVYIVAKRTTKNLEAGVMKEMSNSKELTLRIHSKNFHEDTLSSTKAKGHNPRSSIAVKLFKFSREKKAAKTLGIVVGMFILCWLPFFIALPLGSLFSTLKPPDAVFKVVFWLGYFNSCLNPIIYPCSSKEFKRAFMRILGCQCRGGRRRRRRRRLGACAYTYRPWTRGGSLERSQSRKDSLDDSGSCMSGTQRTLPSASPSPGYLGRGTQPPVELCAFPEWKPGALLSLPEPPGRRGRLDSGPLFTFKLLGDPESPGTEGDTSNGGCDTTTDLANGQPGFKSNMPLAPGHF
- assayText: Activity at adrenergic alpha 1B receptor assessed as antagonsim of phenylephrine-induced contraction of Sprague-Dawley rat spleen
- Format: functional, tissue-based
- runConditions: read-out: pA2 (converted)
quantityKind: Kb (nM)

>>> df
                              recordsmiles  quantitykind  unitannotation  observed
0  COc1ccc2ccccc2c1OCCNC[C@H]1COc2ccccc2O1            Kb              nM     0.204

(a) COc1ccc(-c2ccccc2)cc1OCCNC[C@H]1COc2ccccc2O1
(b) COc1cccc(-c2ccccc2)c1OCCNC[C@H]1COc2ccccc2O1
Problem: Would you mind telling me which has the lower recorded Kb between a and b ? Please indicate the selected item by its label.
Solution: b
